The reported measurements were obtained from patent US8288379B2.

Target: FRAP1 (mTOR) kinase (Homo sapiens)
Assay: Inhibition of mTOR-induced p-4E-BP1 phosphorylation (TR-FRET mTOR Activity Kit; Invitrogen)
Details: 400 nM GFP-4E-BP1 substrate, ~150 ng/mL mTOR, one hour at room temperature
Source text: Inhibition of mTOR-Induced p-4E-BP1 Phosphorylation (TR-FRET mTOR Activity Kit; Invitrogen) • GFP-4E-BP1 substrate; Invitrogen order no. PV4759 • Lanthascreen Tb-anti-p4E-BP1 (pThr46) Antibody Kit; Invitrogen order no. PV4758 • FRAP1 (mTOR) kinase; Invitrogen order no. […] Stop Step and Fluorescence Detection: 1. […] Measure the GFP (FRET) and terbium (reference) emission signals on a fluorescence plate reader (e.g. Perkin Elmer Envision). […]
ENDPOINT: pIC50
Just so you know, pIC50 here is -log10 of the concentration in molar units; reply with that number alone.

• CCNc1ccc(-c2nn(-c3ccccc3C)c3c2CCCc2nc(NC(=O)CCc4nccn4C)sc2-3)cn1 [Example B-72] = 7.08
• CNc1ccc(-c2nn(-c3ccccc3C)c3c2CCCc2nc(NC(=O)OC)sc2-3)cn1 [Example B-50] = 7.52
• CCNc1ccc(-c2nn(-c3cccnc3C)c3c2CCCc2nc(NC(=O)N(C)C)sc2-3)cn1 [Example B-141] = 6.29
• CCNc1ccc(-c2nn(C(C)(C)C)c3c2CCCc2nc(NC(C)=O)sc2-3)cn1 [Example B-123] = 5.94
• CN(C)C(=O)Nc1nc2c(s1)-c1c(c(-c3ccc(N)nc3)nn1-c1ccccc1F)CCC2 [Example B-97] = 6.76

Now let's try a different one.
Value lookup for pIC50; key = COCCn1nc(-c2ccc(N)nc2)c2c1-c1sc(NC(C)=O)nc1CCC2 [Example B-132]
7.28

---

biological target: FRAP1 (mTOR) kinase (Homo sapiens); assay: Inhibition of mTOR-induced p-4E-BP1 phosphorylation (TR-FRET mTOR Activity Kit; Invitrogen); settings: 400 nM GFP-4E-BP1 substrate, ~150 ng/mL mTOR, one hour at room temperature
Label key: rule met means IC50 under 60 nM; rule not met means IC50 of 60 nM or more.

Some entries whose results are on file:
* CC(=O)Nc1nc2c(s1)-c1c(c(-c3ccc(N)nc3)nn1-c1ccccc1Br)CCC2 [Example B-63] | rule met
* COc1ccccc1-n1nc(-c2c[nH]cn2)c2c1-c1sc(NC(C)=O)nc1CCC2 [Example B-117] | rule met
* COCC(=O)Nc1nc2c(s1)-c1c(c(-c3ccc(C)nc3)nn1-c1ccccc1C)CCC2 [Example E-13] | rule not met
* CC(C)n1ncc2c1-c1scnc1CCC2 [Example C-08] | rule not met
* CC(=O)Nc1nc2c(s1)-c1c(c(C(=O)Nc3cc[nH]n3)nn1C(C)C)CCC2 [Example E-10] | rule not met
* COCCC(=O)Nc1nc2c(s1)-c1c(c(-c3ccc(N)nc3)nn1C(C)C)CCC2 [Example B-133] | rule not met
* CN(C)C(=O)Nc1nc2c(s1)-c1c(c(-c3ccc(N)nc3)nn1C1CCN(C3CC3)CC1)CCC2 [Example B-49] | rule met
* Cc1ccc(-c2nn(-c3ccccc3C)c3c2CCCc2nc(NC(N)=O)sc2-3)cn1 [Example D-04] | rule not met
* CN(C)CC(=O)Nc1nc2c(s1)-c1c(c(-c3ccc(N)nc3)nn1-c1ccccc1F)CCC2 [Example E-17] | rule not met
* CC(=O)Nc1nc2c(s1)-c1c(c(-c3ccc(C)nc3)nn1-c1ccccc1C)CCC2 [Example B-11] | rule not met

Hi there! Is IC50 for CC(=O)Nc1nc2c(s1)-c1c(c(-c3ccc(N)nc3)nn1-c1ccccc1F)CCC2 [Example B-62] below 60 nM, do you know?
rule met

State whether 60 nM exceeds IC50 recorded for CCNc1ccc(-c2nn(-c3ccccc3CC)c3c2CCCc2nc(NC(C)=O)sc2-3)cn1 [Example B-79] .
rule not met

Take the compound CNc1ccc(-c2nn(-c3ccccc3)c3c2CCCc2nc(NC(C)=O)sc2-3)cn1 [Example B-87] and say whether its IC50 is less than 60 nM.
rule met

Strictly below 60 nM in IC50? CC(=O)Nc1nc2c(s1)-c1c(c(-c3c[nH]cn3)nn1-c1ccccc1F)CCC2 [Example B-111]
rule met

In the record for CNC(=O)Nc1nc2c(s1)-c1c(c(-c3ccc(C)nc3)nn1-c1ccccc1C)CCC2 [Example D-05] , is IC50 less than 60 nM?
rule not met

---

pIC50 overview
target: FRAP1 (mTOR) kinase (Homo sapiens, UniProt P42345); experiment: Inhibition of mTOR-induced p-4E-BP1 phosphorylation (TR-FRET mTOR Activity Kit; Invitrogen); settings: 400 nM GFP-4E-BP1 substrate, ~150 ng/mL mTOR, one hour at room temperature
Sequence (P42345 1360-2549 limits assumed): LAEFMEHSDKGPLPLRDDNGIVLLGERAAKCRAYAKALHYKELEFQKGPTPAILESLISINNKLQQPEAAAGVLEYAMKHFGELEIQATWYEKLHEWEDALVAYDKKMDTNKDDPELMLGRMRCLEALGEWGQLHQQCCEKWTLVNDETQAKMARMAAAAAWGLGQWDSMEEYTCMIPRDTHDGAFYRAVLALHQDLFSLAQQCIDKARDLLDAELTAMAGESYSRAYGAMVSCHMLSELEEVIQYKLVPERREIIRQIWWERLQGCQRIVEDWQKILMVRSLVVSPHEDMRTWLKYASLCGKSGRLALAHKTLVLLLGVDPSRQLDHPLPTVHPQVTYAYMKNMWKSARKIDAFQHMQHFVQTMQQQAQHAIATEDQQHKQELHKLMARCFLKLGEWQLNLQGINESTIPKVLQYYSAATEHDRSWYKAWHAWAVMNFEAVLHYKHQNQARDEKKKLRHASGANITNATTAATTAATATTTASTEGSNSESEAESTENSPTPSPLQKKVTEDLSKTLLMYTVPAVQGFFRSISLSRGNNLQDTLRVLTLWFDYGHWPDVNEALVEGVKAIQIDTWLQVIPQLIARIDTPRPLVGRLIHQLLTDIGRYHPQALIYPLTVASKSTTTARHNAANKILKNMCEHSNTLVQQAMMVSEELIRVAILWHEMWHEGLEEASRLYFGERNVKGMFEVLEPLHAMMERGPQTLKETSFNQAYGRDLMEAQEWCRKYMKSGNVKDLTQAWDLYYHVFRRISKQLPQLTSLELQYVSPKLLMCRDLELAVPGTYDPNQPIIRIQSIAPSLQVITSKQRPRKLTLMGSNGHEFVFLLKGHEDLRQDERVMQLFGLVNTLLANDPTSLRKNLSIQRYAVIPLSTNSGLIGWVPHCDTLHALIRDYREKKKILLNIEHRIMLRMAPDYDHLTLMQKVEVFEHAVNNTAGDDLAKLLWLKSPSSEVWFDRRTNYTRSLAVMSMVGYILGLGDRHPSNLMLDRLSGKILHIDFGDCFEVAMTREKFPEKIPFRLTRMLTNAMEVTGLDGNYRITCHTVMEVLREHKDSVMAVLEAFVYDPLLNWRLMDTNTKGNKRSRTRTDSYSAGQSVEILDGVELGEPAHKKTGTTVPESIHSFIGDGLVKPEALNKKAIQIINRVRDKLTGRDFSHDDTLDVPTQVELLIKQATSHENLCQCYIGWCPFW
Interpret pIC50 as the negative base-10 log of the concentration measured in mol/L.

Below, each entry is followed by its recorded pIC50 result.
• CC(=O)Nc1nc2c(s1)-c1c(c(-c3ccc(C)nc3)nn1-c1ccncc1C)CCC2 [Example B-90] = 6.93
• COCCC(=O)Nc1nc2c(s1)-c1c(c(-c3ccc(N)nc3)nn1CC(C)C)CCC2 [Example B-134] = 7.22
• CNc1ccc(-c2nn(C3CCN(C4CC4)CC3)c3c2CCCc2nc(NC(=O)N(C)C)sc2-3)cn1 [Example B-57] = 7.15

So what does the record say about pIC50 for CNc1ccc(-c2nn(CC(C)C)c3c2CCCc2nc(NC(C)=O)sc2-3)cn1 [Example B-86] ?
7.49

---

molecular target: FRAP1 (mTOR) kinase (Homo sapiens, UniProt P42345); assay: Inhibition of mTOR-induced p-4E-BP1 phosphorylation (TR-FRET mTOR Activity Kit; Invitrogen); details: 400 nM GFP-4E-BP1 substrate, ~150 ng/mL mTOR, one hour at room temperature
ENDPOINT: IC50 (nM)
Give the value, in units of nM, as a plain number.

Answered examples (4):
- CN(C)C(=O)Nc1nc2c(s1)-c1c(c(-c3ccc(N)nc3)nn1-c1ccccc1)CCC2: 67
- CNC(=O)Nc1nc2c(s1)-c1c(c(-c3ccc(NC)nc3)nn1C(C)C)CCC2: 113
- CCNc1ccc(-c2nn(C(C)C)c3c2CCCc2nc(NC(=O)NC)sc2-3)cn1: 182
- CNC(=O)Nc1nc2c(s1)-c1c(c(-c3ccc(N)nc3)nn1-c1ccccc1C)CCC2: 15

For the compound "CC(=O)Nc1nc2c(s1)-c1c(c(-c3ccc(C)nc3)nn1C1CCN(C3CC3)CC1)CCC2" , what IC50 is on record?
31

---

biological target: FRAP1 (mTOR) kinase (Homo sapiens, UniProt P42345); assay: Inhibition of mTOR-induced p-4E-BP1 phosphorylation (TR-FRET mTOR Activity Kit; Invitrogen); settings: 400 nM GFP-4E-BP1 substrate, ~150 ng/mL mTOR, one hour at room temperature
pIC50: −log10 of the molar value.
Given measured pIC50, output 1 if it is greater than or equal to 7 and -1 if not.

Examples with answers:
- CC(=O)Nc1nc2c(s1)-c1c(c(-c3c[nH]cn3)nn1-c1ccccc1C)CCC2 [Example B-112]: 1
- CNc1ccc(-c2nn(-c3ccccc3C)c3c2CCCc2nc(NC(=O)COC)sc2-3)cn1 [Example B-107]: -1
- CC(=O)Nc1nc2c(s1)-c1c(c(-c3c[nH]c(C)n3)nn1CC(C)C)CCC2 [Example B-121]: 1
- Cc1ccccc1-n1nc(-c2ccc(N)nc2)c2c1-c1sc(NC(=O)CN)nc1CCC2 [Example B-102]: 1
- CCn1nc(-c2ccc(N)nc2)c2c1-c1sc(NC(C)=O)nc1CCC2 [Example B-130]: 1

Then this molecule:
Decide: pIC50 of COCCC(=O)Nc1nc2c(s1)-c1c(c(-c3ccc(N)nc3)nn1-c1ccccc1F)CCC2 [Example E-15] >= 7?
1

---

biological target: FRAP1 (mTOR) kinase (Homo sapiens, UniProt P42345); test: Inhibition of mTOR-induced p-4E-BP1 phosphorylation (TR-FRET mTOR Activity Kit; Invitrogen); conditions: 400 nM GFP-4E-BP1 substrate, ~150 ng/mL mTOR, one hour at room temperature
ENDPOINT: IC50 (nM)
Hi! Could you send only the number? It should be in nM, unit omitted.

Reference set (5 entries):
* C=CCn1nc(-c2ccc(N)nc2)c2c1-c1sc(NC(=O)N(C)C)nc1CCC2 | 146
* CCCn1nc(-c2ccc(N)nc2)c2c1-c1sc(NC(C)=O)nc1CCC2 | 17
* CC(=O)Nc1nc2c(s1)-c1c(c(-c3ccc(C)nc3)nn1-c1ccccc1F)CCC2 | 53
* CC(C)n1nc(-c2ccc(N)nc2)c2c1-c1sc(NC(=O)CCCN(C)C)nc1CCC2 | 44
* CNc1ccc(-c2nn(-c3ccccc3C)c3c2CCCc2nc(NC(C)=O)sc2-3)cn1 | 36

What does the record list as IC50 for "CC(=O)Nc1nc2c(s1)-c1c(c(-c3c[nH]c(C)n3)nn1-c1ccccc1C)CCC2" ?
65

Sample "CC(=O)Nc1nc2c(s1)-c1c(c(-c3ccc(N)nc3)nn1CCN1CCOCC1)CCC2" — what was its IC50?
1380

Entry CCNc1ccc(-c2nn(C(C)COC)c3c2CCCc2nc(NC(C)=O)sc2-3)cn1 (centres unmarked) : reported IC50 = ?
84

Need IC50, item "CC(=O)Nc1nc2c(s1)-c1c(c(-c3c[nH]cn3)nn1CCN(C)C)CCC2"
840

Entry "CCNc1ccc(-c2nn(C(C)C)c3c2CCCc2nc(NC(C)=O)sc2-3)cn1" has what IC50?
151

Field request: IC50 | item: "CNc1ccc(-c2nn(C3CCN(C)CC3)c3c2CCCc2nc(NC(=O)N(C)C)sc2-3)cn1"
379

Reported IC50, compound "CCNc1ccc(-c2nn(CCN3CCOCC3)c3c2CCCc2nc(NC(C)=O)sc2-3)cn1" : ____
994
